Source: patent US20070286861A1

# Tgt: T1, human Oncostatin M (hOSM) (human)
# T1 chain: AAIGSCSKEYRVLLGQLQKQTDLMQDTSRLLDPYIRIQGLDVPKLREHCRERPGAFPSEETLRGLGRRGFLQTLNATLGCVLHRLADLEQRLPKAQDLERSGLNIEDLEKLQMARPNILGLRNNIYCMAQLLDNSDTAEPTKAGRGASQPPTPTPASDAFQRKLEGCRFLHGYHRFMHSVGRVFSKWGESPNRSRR
Measurement Name: IL-6 release from KB cells (KB cell assay), IC50

| Binder | Recorded Result |
| --- | --- |
| 15E10 murine antibody (antibody, V domains shown) VH: QVQLKQSGPGLVQPSQSLSITCTVSGFSLTNYGVHWVRQSPGKGLEWLGVIWRGGSTDYNAAFMSRLSITKDNSRSQVFFKMNSLQADDTAIYYCAKSPNSNFYWYFDVWGTGTTVTVSS VL: QIVLTQSPTIMSASPGEKVTMTCSGSSSVSYMYWYQEKPGSSPRLLIEDTSNLASGVPARFSGSGSGTSYSLTISRMEAEDAATYYCQQWSSYPPTFGSGTKLEIK | 0.195 µg/mL |
| 10D3 chimaeric antibody (antibody, V domains shown) VH: EVQLQQSGPELVKPGASVKISCKASGYIFTDYNMDWVKQSHGKKLEWIGDINPNNGGTIDNQKFKDKATLTVDKSSSTAYMELRSLTSEDTAVYYCARGIYYYGSHYFDYWGQGTTLTVSS VL: QIVLTQSPAIMSASPGEKVTMTCSATSSVSVMHWFQKKSGTSPKRWIYDTSKLASGVPTRFSGSGSGTSYSLTISSMEAEDTATYYCQQWSSNPLTFGSGTKLELK | 0.107 µg/mL |
| 15E10 chimaeric antibody (antibody, V domains shown) VH: QVQLKQSGPGLVQPSQSLSITCTVSGFSLTNYGVHWVRQSPGKGLEWLGVIWRGGSTDYNAAFMSRLSITKDNSRSQVFFKMNSLQADDTAIYYCAKSPNSNFYWYFDVWGTGTTVTVSS VL: QIVLTQSPTIMSASPGEKVTMTCSGSSSVSYMYWYQEKPGSSPRLLIEDTSNLASGVPARFSGSGSGTSYSLTISRMEAEDAATYYCQQWSSYPPTFGSGTKLEIK | 0.11 µg/mL |
